assay: insulin gene promoter stimulation in islet cells – imaging, TRM-6 cells (human fetal islet line), eGFP reporter, cell count, primary screen (AID 1296;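 note: share of cells whose green reporter signal exceeds an intensity cutoff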); settings: at 2 µM; active compounds read high, plate-scaled: unstimulated 0, stimulated control 100
Hit rate of the full screen: of about 130,000 compounds, about 1,000 (0.77%) were called active. About 1% were inconclusive and are not listed. Many of the other results were omitted from the sample, so actives are more common in it than they were.
Provide the reported activation of each item.
Note: unit % is implicit; provide only the numeric part.

In plain terms, Cc1ccnc(NC(=O)Cn2ccc([N+](=O)[O-])n2)c1 has a documented activation of 5.71

Briefly, activation measured for CS(=O)(=O)N(Cc1ccccc1)c1ccc(C(=O)NN=C2CCCCCC2)cc1 : -6.9

Measured activation, COc1ccc(C)cc1Nc1nc(-c2c(C)[nH]c3ccccc23)cs1 : -3.7

The molecule identified as Cc1ccc(/C=C(\C#N)C(=O)Nc2cccc3ncccc23)o1 registered its activation at 2.7

Short answer for C=CCn1c(CCc2ccc(OC(C)C)cc2)n[nH]c1=S : activation was 0

The measured activation associated with CC1(C)CC(=O)C(N=Nc2ccc(S(=O)(=O)N3CCCCCC3)cc2)=C(O)C1 reads 0

Reference source for all entries: PubChem BioAssay AID1296
